Measured Kd by item
- target-or-test-system: T1, cynomolgus CD40-Fc protein (cynomolgus, UniProt G7PG38 21-193)
- T1 construct: not shown: Fc part
- test: BLI (ForteBio), IgG on AHQ sensor, 100 nM CD40-Fc in solution, bivalent, 1:1 model
Kindly provide the numeric value in nM only, without the unit symbol.

Guide cases for Kd, answers given:
[[record]]
binder = "ADI-55147 (antibody, human IgG1, kappa, V domains shown) VH: QVQLVESGGGVVQPGRSLRLSCAASGFTFGSYGMHWVRQAPGKGLEWVAVISYEGVKKYYADSVKGRFTISRDNSKNTLYLQMNSLRAEDTAVYYCARDTSRGHDIWGQGTMVTVSS VL: EIVLTQSPGTLSLSPGERATLSCRASQSVSYDYLAWYQQKPGQAPRLLIYGASARANGIPDRFSGSGSGTDFTLTISRLEPEDFAVYYCQQYADYPPFTFGGGTKVEIKR"
reported_measurement = 0.208

[[record]]
binder = "ADI-55164 (antibody, human IgG1, kappa, V domains shown) VH: EVQLVESGGGLVQPGRSLRLSCAASGFTFDDYAMHWVRQAPGKGLEWVSGISWSSDSIHYADSVKGRFTISRDNAKNSLYLQMNSLRAEDTAVYYCAKDPTATTGARGYFDLWGRGTLVTVSS VL: DIQMTQSPSSVSASVGDRVTITCRASKVISSWLAWYQQKPGKAPKLLIYAASYLESGVPSRFSGSGSGTDFTLTISSLQPEDFATYYCQQHSSFPPTFGGGTKVEIKR"
reported_measurement = 0.117

[[record]]
binder = "ADI-55140 (antibody, human IgG1, kappa, V domains shown) VH: QVQLVESGGGVVQPGRSLRLSCAASGFTFEKYGMHWVRQAPGKGLEWVAVIHYEGSIKYYADSVKGRFTISRDNSKNTLYLQMNSLRAEDTAVYYCARDTSRGHDIWGQGTMVTVSS VL: EIVLTQSPGTLSLSPGERATLSCRASQSVSYDYLAWYQQKPGQAPRLLIYGASTRANGIPDRFSGSGSGTDFTLTISRLEPEDFAVYYCGEYADYPPFTFGGGTKVEIKR"
reported_measurement = 0.23


Proceeding to the next binder to report its Kd.
Q: Give recorded Kd. ADI-55142 (antibody, human IgG1, kappa, V domains shown) VH: QVQLVESGGGVVQPGRSLRLSCAASGFTFEKYGMHWVRQAPGKGLEWVAVISYEGEKKYYADSVKGRFTISRDNSKNTLYLQMNSLRAEDTAVYYCARDTSRGHDIWGQGTMVTVSS VL: EIVLTQSPGTLSLSPGERATLSCRASQSVSYSYLAWYQQKPGQAPRLLIYGASSRANGIPDRFSGSGSGTDFTLTISRLEPEDFAVYYCSDYADYPPFTFGGGTKVEIKR
Result: 0.193
